Data provenance is PubChem BioAssay (NCI).

system: MCF7 breast; assay: NCI-60 one-dose screen, 48 h (100 = growth as untreated, 0 = no growth, -100 = all killed); conditions: 10 µM unless noted
The panel holds about 83,000 compounds, 20% with a hit somewhere; the sample as a whole holds those more often.
value_type: growth (%)
Answer with a number only, understood to be in %.

Known results for compounds:
> print(dat)
                                smiles.repr  units.of.measure  reading
1   O=C1/C(=C/c2ccc(F)cc2)COc2ccc(O)c(O)c21                 %     17.7
2  O=C(Nc1cccnc1Nc1ccc(F)cc1)c1cn(Cc2cccc(Oc3ccccc3)c2)nn1                 %     40.1
3  Cc1ccccc1Cn1cnc2ccc(-c3cc(NC(=O)c4ccc(NC5CCN(C)CC5)cc4)n[nH]3)cc21                 %     77.1

Let's switch to this compound now.
Q: growth for `O=C1c2c(c3c4ccccc4[nH]c3c3ccc4ccccc4c23)C(=O)N1CCN1CCCCC1` ?
Ans: 17.1

====

system: SK-MEL-5 melanoma; test: NCI-60 one-dose screen, 48 h (100 = growth as untreated, 0 = no growth, -100 = all killed); details: 10 µM unless noted
This is part of a sample that, as a whole, favours compounds with a hit. Of some 83,000 tested, about 20% had one in any assay. Active and inactive are the calls of the source. Rule for the calls: active = growth percent below 10; inactive = the rest.
# growth listing for each entry below

> print(dat)
                                   compound           reading
1  CN1CCN(C(=O)OCc2ccc3c(Cl)cc(Cl)c(O)c3n2)CC1  49.6% (inactive)
2            CCCCNc1ccc(C#N)c(OCCN(CC)CC)c1  93.9% (inactive)

Q: Give its growth value. Item: `O=C1COCCN1c1ccc(Nc2nc(Cl)nc(OCc3cn(Cc4ccccc4)nn3)n2)cc1`
Ans: 95.8% (inactive)

Q: Find the recorded growth belonging to `O=C(N/N=C/c1ccc(F)cc1)c1ccc(C(F)(F)F)nc1Nc1cccc(C(F)(F)F)c1` and report it.
Ans: -30.6% (active)

Q: Tell me the measured growth of `CCOC(=O)c1[nH]c(=O)c2c(C)nc(-c3ccccc3)cc2c1O` , please.
Ans: 96.7% (inactive)

====

system: RPMI-8226 leukemia; assay: NCI-60 one-dose screen, 48 h; details: 10 µM unless noted
Compounds without any hit were thinned out: in the full panel of roughly 83,000, 20% have a hit. The source made the active and inactive calls. The calls were made as follows: active = growth percent below 10; inactive = the rest.
Give one outcome, nothing more. List: true (1) for active, false (0) for inactive

> print(dat)
                                   compound  answer.label
1  Cc1ccc(-c2nn(-c3ccccc3)cc2C=C2C(=O)ON=C2C(C)C)cc1      true (1)
2  O=C(NNc1nccc(Nc2ccc(S(=O)(=O)Nc3ccncc3)cc2)n1)c1ccccc1     false (0)
3  COc1cc2c(c(OC)c1OC)CCC(c1cccc(C(=O)Nc3cccc(Br)c3)c1)O2 (centres undefined)     false (0)
4  C#Cc1cccc(Nc2ncnc3ccc(-c4cncc(NS(C)(=O)=O)c4)cc23)c1     false (0)

Q: What is the recorded call for this compound in the test? CCCC(O)Cn1ncc(C(=O)OCC)c1NC(=O)NCc1ccccc1F (centres undefined)
Ans: false (0)

Q: Could you please tell me the result logged for `CS(=O)(=O)c1cccc(-c2c(-c3cccc(OS(N)(=O)=O)c3)nc3sccn23)c1` in this assay?
Ans: false (0)

Q: What outcome does the record of this test show for `CS(=O)(=O)Nc1cc(-c2ccc3ncnc(Nc4ccc5c(cnn5Cc5ccccn5)c4)c3c2)cnc1Cl` ?
Ans: false (0)

Q: Each compound tested received a call. Report the one for `COc1ccc(N2CCC(=O)NC2=S)cc1` .
Ans: false (0)

Q: Dear all, I need the recorded test outcome for `CC/C(=C(/c1ccc(Cl)cc1)c1ccc(OCCN2CCCC2)cc1)c1ccc(OC)cc1` , thank you.
Ans: false (0)

Q: Hello, I am checking results. What call was entered for `CCN(CC)CCNC(=O)c1cn2ncnc(Oc3ccc(NC(=O)Nc4ccc(Cl)c(C(F)(F)F)c4)c(F)c3)c2c1C` ?
Ans: true (1)

Q: Recorded call for `CCOC(=O)Cn1c(O)c(N=Nc2ccc(S(N)(=O)=O)cc2)c2cc(Br)ccc21` ?
Ans: false (0)

Q: Per the assay record, what outcome was assigned to `O=C(Nc1nn(-c2ccc(Cl)cc2Cl)nc1-c1ccccc1)c1ccccc1` ?
Ans: false (0)

Q: Status in this test for `COC(=O)c1c2c(c[n+]([O-])c1C)C(=O)C(NCc1ccccc1)=CC2=O` ?
Ans: true (1)

Q: Assay outcome for `Cc1nc2sc(C(=O)Nc3cccc(Cl)c3C)c(N)c2cc1C(=O)c1ccccc1` : what was it?
Ans: true (1)

Q: Tell me the assay call for `COC(=O)c1cc(-c2ccccc2)[nH]c1N/N=C/c1c(Cl)cccc1Cl` please.
Ans: true (1)

Q: Recorded test outcome, item `COc1cc2c(c(OC)c1OC)-c1ccc(OC)c(=O)cc1[C@@H](NC(=O)CCl)CC2`
Ans: false (0)

Q: Per the records of this test, what outcome belongs to `CCn1c(=S)sc2c(Nc3ccc(F)cc3)nc(-c3cccnc3)nc21` ?
Ans: false (0)

Q: // return assay outcome for `C#COc1cccc(Nc2ncnc3ncc(NC(=O)CCl)cc23)c1`
Ans: false (0)

Q: Outcome? `Cn1cc(-c2csc(-c3ccc(Cl)cc3)n2)c2cccnc21`
Ans: true (1)
